tested on: 435261-313-R-J1-PDC tumor spheroid viability; assay: Anticancer human tumor 435261-313-R-J1-PDC patient-derived colon adenocarcinoma cell line growth inhibition [PI3K]; conditions: curve of first compound; second compound 1 µM; spheroids with HUVEC and MSC;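 also: spheroids exposed to compounds for 7 days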
pIC50: −log10 of the molar value.
ATTRIBUTE_MEASURED: pIC50

For orientation, consider the following solved cases.
Query block: Item C=CC(=O)N1CCN(c2nc(=O)n(-c3c(C)ccnc3C(C)C)c3nc(-c4c(O)cccc4F)c(F)cc23)C(C)C1 (stereo unspecified) + CC(Nc1ncnc2nc[nH]c12)c1cc2cccc(Cl)c2c(=O)n1-c1ccccc1 with 435261-313-R-J1-PDC tumor spheroid viability - pIC50?
Result block: < 5.00

Query block: Item C=CC(=O)N1CCN(c2nc(=O)n(-c3c(C)ccnc3C(C)C)c3nc(-c4c(O)cccc4F)c(F)cc23)C(C)C1 (stereo unspecified) + CC(Nc1ccc2c(c1)OCCn1cc(N3C(=O)OCC3C(F)F)nc1-2)C(N)=O with 435261-313-R-J1-PDC tumor spheroid viability - pIC50?
Result block: > 7.50

Query block: Item CC(=O)c1c(C)c2cnc(Nc3ccc(N4CCNCC4)cn3)nc2n(C2CCCC2)c1=O + CC(Nc1ncnc2nc[nH]c12)c1cc2cccc(Cl)c2c(=O)n1-c1ccccc1 with 435261-313-R-J1-PDC tumor spheroid viability - pIC50?
Result block: < 7.00

Query block: Item C=CC(=O)N1CCN(c2nc(=O)n(-c3c(C)ccnc3C(C)C)c3nc(-c4c(O)cccc4F)c(F)cc23)C(C)C1 (stereo unspecified) + Cc1nc(NC(=O)N2CCCC2C(N)=O)sc1-c1ccnc(C(C)(C)C(F)(F)F)c1 with 435261-313-R-J1-PDC tumor spheroid viability - pIC50?
Result block: > 7.50

Query block: Item CC1(C)CCC(Nc2ncc(C(F)(F)F)c(-c3c[nH]c4c(P(C)(C)=O)c(C#N)ccc34)n2)CN1 (stereo unspecified) + COc1c(OCCCN2CCOCC2)ccc2c3n(c(=NC(=O)c4cnc(N)nc4)nc12)CCN3 with 435261-313-R-J1-PDC tumor spheroid viability - pIC50?
Result block: > 7.50

Next:
Query block: Item C[C@@H](NC(=O)c1ncnc(N)c1Cl)c1ncc(C(=O)Nc2cc(C(F)(F)F)c(Cl)cn2)s1 + CC(Nc1ncnc2nc[nH]c12)c1cc2cccc(Cl)c2c(=O)n1-c1ccccc1 with 435261-313-R-J1-PDC tumor spheroid viability - pIC50?
Result block: < 5.00
